The measurements presented in this section are drawn from patent US20240182536A1.

- system under test: T1, IL-18 binding protein (IL-18BP) (UniProt O95998 31-194); note: unit not given here
- T1 sequence (looked up): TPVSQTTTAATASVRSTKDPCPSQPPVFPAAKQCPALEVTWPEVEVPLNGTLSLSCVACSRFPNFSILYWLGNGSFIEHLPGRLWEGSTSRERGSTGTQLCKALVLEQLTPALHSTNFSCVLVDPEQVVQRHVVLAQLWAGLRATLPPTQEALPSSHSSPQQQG
- protocol description: cell-based or functional assay
I'd be grateful if you could share measured Activity, +100 nM BP, DF-5000003 for these entries.
Just the number, please, no unit attached.

[ask] Sample IL-18 variant G3L, E6Y, D54T, T63S, N91Y, R104Q (ligand) YFLKLYSKLSVIRNLNDQVLFIDQGNRPLFEDMTDSDMRDNAPRTIFIISMYKTSQPRGMAVSISVKSEKISTLSSENKIISFKEMNPPDYIKDTKSDIIFFQQSVPGHDNKMQFESSSYEGYFLASEKERDLFKLILKKEDELGDRSIMFTVQNED — what was its Activity, +100 nM BP, DF-5000003?
[reply] 1.92

[ask] Sample IL-18 variant G3P, E6R, K53T, D54Y, S55I, T63V, N91G, R104K (ligand) YFPKLRSKLSVIRNLNDQVLFIDQGNRPLFEDMTDSDMRDNAPRTIFIISMYTYIQPRGMAVVISVKSEKISTLSSENKIISFKEMNPPDGIKDTKSDIIFFQKSVPGHDNKMQFESSSYEGYFLASEKERDLFKLILKKEDELGDRSIMFTVQNED — what was its Activity, +100 nM BP, DF-5000003?
[reply] 0.08

[ask] Sample IL-18 variant G3P, E6D, K53T, D54N, T63A, N91T, R104P (ligand) YFPKLDSKLSVIRNLNDQVLFIDQGNRPLFEDMTDSDMRDNAPRTIFIISMYTNSQPRGMAVAISVKSEKISTLSSENKIISFKEMNPPDTIKDTKSDIIFFQPSVPGHDNKMQFESSSYEGYFLASEKERDLFKLILKKEDELGDRSIMFTVQNED — what was its Activity, +100 nM BP, DF-5000003?
[reply] 0.08
